- TARGET OR SYSTEM: purified recombinant human IP6K2 kinase domain (Homo sapiens)
- Sequence (Q9UHH9 1-426): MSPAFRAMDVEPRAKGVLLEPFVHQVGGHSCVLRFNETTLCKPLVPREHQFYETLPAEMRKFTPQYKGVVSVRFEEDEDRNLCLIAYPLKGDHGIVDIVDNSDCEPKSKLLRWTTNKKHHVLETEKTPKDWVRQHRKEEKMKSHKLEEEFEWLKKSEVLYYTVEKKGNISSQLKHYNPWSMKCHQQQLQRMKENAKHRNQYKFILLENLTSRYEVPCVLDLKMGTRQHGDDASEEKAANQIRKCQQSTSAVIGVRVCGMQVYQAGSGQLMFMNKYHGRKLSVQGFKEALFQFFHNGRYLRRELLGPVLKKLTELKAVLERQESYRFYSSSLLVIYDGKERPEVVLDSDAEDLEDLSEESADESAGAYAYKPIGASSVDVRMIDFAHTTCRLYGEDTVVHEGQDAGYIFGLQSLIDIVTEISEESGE
- ASSAY TEXT: IP6K2 IC50 determination, malachite green Pi release assay
- SETTINGS: supplementary csv
- Protocol: IP6K2 IC50 values were determined using the purified recombinant human IP6K2 kinase domain expressed in a 384-well clear polystyrene plate (VWR 82051-264). […] Pi release was determined with a malachite green colorimetric assay. […] Pi release was quantified from the absorbance at 620 nm by using appropriate standards.
MEASURED PARAMETER: log10(IC50) (log10 of the value in nM)
Note the log scale: values are log10 of IC50 expressed in nM.

Tested on purified recombinant human IP6K2 kinase domain (Homo sapiens): Clc1cnc(Oc2cccc(-c3onc4ccc(-c5nnn[nH]5)cc34)c2)c(Cl)c1 [Compound 13] . Observed log10(IC50): 2.11

Tested on purified recombinant human IP6K2 kinase domain (Homo sapiens): FC(F)(F)Oc1ccc(-c2onc3ccc(-c4nnn[nH]4)cc23)cc1 [Compound 8] . Observed log10(IC50): 1.96

Tested on purified recombinant human IP6K2 kinase domain (Homo sapiens): c1ccc(-c2onc3ccc(-c4nnn[nH]4)cc23)cc1 [Compound 6] . Observed log10(IC50): 2.10

Tested on purified recombinant human IP6K2 kinase domain (Homo sapiens): O=C(Nc1ccc(-c2onc3ccc(-c4nnn[nH]4)cc23)cc1)C1CC1 [Compound 10] . Observed log10(IC50): 2.47

Tested on purified recombinant human IP6K2 kinase domain (Homo sapiens): c1ccc(Oc2ccc(-c3onc4ccc(-c5nnn[nH]5)cc34)cc2)cc1 [Compound 9] . Observed log10(IC50): 2.97

Tested on purified recombinant human IP6K2 kinase domain (Homo sapiens): O=C(Nc1cccc(-c2onc3ccc(-c4nnn[nH]4)cc23)c1)C1CC1 [Compound 11] . Observed log10(IC50): 2.03

Tested on purified recombinant human IP6K2 kinase domain (Homo sapiens): Cc1cc(C)cc(-c2onc3ccc(-c4nnn[nH]4)cc23)c1 [Compound 4] . Observed log10(IC50): 2.05

Tested on purified recombinant human IP6K2 kinase domain (Homo sapiens): Cc1cc(C)cc(-c2onc3ccc([C@H]4C[C@@H]4C(=O)O)cc23)c1 (racemic) [Compound 2] . Observed log10(IC50): 2.42

Tested on purified recombinant human IP6K2 kinase domain (Homo sapiens): Cc1cc(C)cc(-c2onc3ccc(/C=C/C(=O)O)cc23)c1 [Compound 1] . Observed log10(IC50): 2.39

Tested on purified recombinant human IP6K2 kinase domain (Homo sapiens): c1cc(-c2onc3ccc(-c4nnn[nH]4)cc23)cc(C2CCN(C3CCC3)CC2)c1 [Compound 14] . Observed log10(IC50): 2.57

Tested on purified recombinant human IP6K2 kinase domain (Homo sapiens): FC(F)(F)c1ccc(-c2onc3ccc(-c4nnn[nH]4)cc23)cc1 [Compound 7] . Observed log10(IC50): 2.16

Tested on purified recombinant human IP6K2 kinase domain (Homo sapiens): c1cc(OC2CCNCC2)cc(-c2onc3ccc(-c4nnn[nH]4)cc23)c1 [Compound 12] . Observed log10(IC50): 2.18
